- PROTOCOL_DETAILS: Displacement of ethidium from poly[d(A-T)]-poly[d(A-T)] DNA by fluorimetric method
Give C50 for every item shown.
The figure you give is taken to be in µM; do not add the unit.

Q) Specify reported C50 for the molecule shown: COc1cc(NC(=O)c2ccc(Nc3cc[n+](C)cc3)cc2)ccc1Nc1cc[n+](C)c2cc(N)ccc12.[Br-].[Br-]
A) 0.15

Q) Specify reported C50 for the molecule shown: C[n+]1ccc(Nc2ccc(NC(=O)c3ccc(Nc4cc[n+](C)c5c(N)cccc45)cc3)cc2)cc1.[I-].[I-]
A) 0.2

Q) Specify reported C50 for the molecule shown: C[n+]1cccc(NC(=O)c2ccc(NC(=O)c3ccc(C(=O)Nc4ccc(-c5ccc(-c6ccc(-c7ccc[n+](C)c7)cc6)cc5)cc4)cc3)cc2)c1.Cc1ccc(S(=O)(=O)[O-])cc1.Cc1ccc(S(=O)(=O)[O-])cc1
A) 0.5

====

- Tested on: Mus musculus
- PROTOCOL_DETAILS: Toxicity in ip dosed C3H X DBA2 F1 hybrid mouse […] with mouse L1210 cells on day 0 and dosed once daily on days 1 to 5 measured after 50 days
- Type: organism-based
- MEASUREMENT_SETUP: in vivo, 1200 h
Give LD10 for every item shown.
The figure you give is taken to be in mg/kg; do not add the unit.

Q) Specify reported LD10 for the compound shown: CC[n+]1ccc(Nc2ccc(NC(=O)c3ccc(Nc4cc(C)[n+](CC)c5ccc(N)cc45)cc3N)cc2)cc1.[I-].[I-]
A) 20

Q) Specify reported LD10 for the compound shown: C[n+]1ccc(Nc2ccc(NC(=O)c3ccc(Nc4c(-c5ccccc5)c[n+](C)c5ccc(N)cc45)cc3)cc2)cc1.[Br-].[Br-]
A) 22

Q) Specify reported LD10 for the compound shown: Cc1cc(Nc2ccc(NC(=O)c3ccc(C(=O)Nc4ccc(C(=O)Nc5ccc[n+](C)c5)cc4)cc3)cc2)nc(N)[n+]1C.[I-].[I-]
A) 20

Q) Specify reported LD10 for the compound shown: C[n+]1cccc(NC(=O)c2ccc(NC(=O)c3ccc(C(=O)Nc4ccc(NC(=N)N)cc4)cc3)cc2)c1.I.[I-]
A) 8

====

- PROTOCOL_DETAILS: Displacement of ethidium from poly[d(G-C)]-poly[d(G-C)] DNA (unknown origin) by fluorimetric method
Give C50 for every item shown.
The figure you give is taken to be in µM; do not add the unit.

Q) Specify reported C50 for the compound shown: C[n+]1cccc(NC(=O)c2ccc(NC(=O)c3cccc(C(=O)Nc4ccc(C(=O)Nc5ccc[n+](C)c5)cc4)c3)cc2)c1.Cc1ccc(S(=O)(=O)[O-])cc1.Cc1ccc(S(=O)(=O)[O-])cc1
A) 1.9

Q) Specify reported C50 for the compound shown: C[n+]1ccc(Nc2ccc(NC(=O)c3ccc(Nc4cc[n+](C)c5ccc(N)cc45)cc3)cc2)cc1.[Br-].[Br-]
A) 1.05

Q) Specify reported C50 for the compound shown: C[n+]1ccc(Nc2ccc(NC(=O)c3ccc(/C=C/C4=NCCCN4)cc3)cc2)c2cc(N)ccc21.Cc1ccc(S(=O)(=O)O)cc1.Cc1ccc(S(=O)(=O)[O-])cc1
A) 0.87

Q) Specify reported C50 for the compound shown: Cc1cc(Nc2ccc(NC(=O)c3ccc(C(=O)Nc4ccc(C(=O)Nc5ccc[n+](C)c5)cc4)cc3)cc2)nc(N)n1.I.[I-]
A) 0.49

Q) Specify reported C50 for the compound shown: C[n+]1ccc(Nc2ccc(C(=O)Nc3ccc(Nc4c5ccccc5[n+](C)c5cc(N)ccc45)cc3)cc2)cc1.[Cl-].[Cl-]
A) 0.16

Q) Specify reported C50 for the compound shown: CC[n+]1ccc(Nc2ccc(NC(=O)c3ccc(Nc4cc[n+](CC)c5ccccc45)cc3)cc2)cc1.[Br-].[Br-]
A) 3.1

Q) Specify reported C50 for the compound shown: C[n+]1cccc(NC(=O)c2ccc(NC(=O)c3ccc(C(=O)Nc4ccc[n+](C)c4)cc3)cc2)c1.Cc1ccc(S(=O)(=O)[O-])cc1.Cc1ccc(S(=O)(=O)[O-])cc1
A) 22

Q) Specify reported C50 for the compound shown: C[n+]1ccc(Nc2ccc(C(=O)Nc3ccc(Nc4cc[n+](C)c5ccc(N)cc45)cc3)c(N)c2)cc1.[Br-].[Br-]
A) 0.91

Q) Specify reported C50 for the compound shown: Cn1cc(NC(=O)c2cc(NC(=O)c3cc(NC=O)cn3C)cn2C)cc1C(=O)NCCC(=N)N
A) 2.4

====

Give C50 for every item shown.
- Species: Bos taurus
- PROTOCOL_DETAILS: Displacement of ethidium from calf thymus DNA by fluorimetric method
The figure you give is taken to be in µM; do not add the unit.

Q) Specify reported C50 for the molecule shown: C/C(=C(/C)c1ccc(Nc2cc[n+](C)c3ccc(N)cc23)cc1)c1ccc(Nc2cc[n+](C)cc2)cc1.[Cl-].[Cl-]
A) 1.7

Q) Specify reported C50 for the molecule shown: CCC[n+]1ccccc1-c1ccc(NC(=O)c2ccc(C(=O)Nc3ccc(-c4cccc[n+]4CCC)cc3)cc2)cc1.Cc1ccc(S(=O)(=O)[O-])cc1.Cc1ccc(S(=O)(=O)[O-])cc1
A) 2.2

Q) Specify reported C50 for the molecule shown: C[n+]1cccc2ccc(NC(=O)c3ccc(-c4ccc(-c5ccc(-c6ccc(C(=O)Nc7ccc8ccc[n+](C)c8c7)cc6)cc5)cc4)cc3)cc21.Cc1ccc(S(=O)(=O)[O-])cc1.Cc1ccc(S(=O)(=O)[O-])cc1
A) 0.17

Q) Specify reported C50 for the molecule shown: CCCC[n+]1ccc(Nc2ccc(NC(=O)c3ccc(Nc4cc[n+](CCCC)c5ccccc45)cc3)cc2)cc1.[Br-].[Br-]
A) 2.1

Q) Specify reported C50 for the molecule shown: C[n+]1ccc(Nc2ccc(NC(=O)c3ccc(Nc4cc[n+](C)c5ccc(Cl)cc45)cc3)cc2)cc1.Cc1ccc(S(=O)(=O)[O-])cc1.Cc1ccc(S(=O)(=O)[O-])cc1
A) 0.79

Q) Specify reported C50 for the molecule shown: C[n+]1cc(-c2ccc(NC(=O)c3ccc(Nc4cc[n+](C)c5ccccc45)cc3)cc2)c(N)nc1N.Cc1ccc(S(=O)(=O)[O-])cc1.Cc1ccc(S(=O)(=O)[O-])cc1
A) 1.24

Q) Specify reported C50 for the molecule shown: Cc1cc(Nc2ccc(NC(=O)c3ccc(C(=O)Nc4ccc(Nc5cc(C)[n+](C)c(N)n5)cc4)cc3)cc2)nc(N)[n+]1C.Cc1ccc(S(=O)(=O)[O-])cc1.Cc1ccc(S(=O)(=O)[O-])cc1
A) 0.5

Q) Specify reported C50 for the molecule shown: C[n+]1cccc(-c2ccc(NC(=O)c3ccc(C(=O)Nc4ccc(-c5ccc(-c6ccc(-c7ccc[n+](C)c7)cc6)cc5)cc4)cc3)cc2)c1.Cc1ccc(S(=O)(=O)[O-])cc1.Cc1ccc(S(=O)(=O)[O-])cc1
A) 0.29

Q) Specify reported C50 for the molecule shown: COc1ccc2c(c1)c(Nc1ccc(C(=O)Nc3ccc(Nc4cc[n+](C)cc4)cc3)cc1)cc[n+]2C.Cc1ccc(S(=O)(=O)[O-])cc1.Cc1ccc(S(=O)(=O)[O-])cc1
A) 0.68

Q) Specify reported C50 for the molecule shown: C[n+]1cccc(NC(=O)c2ccc(NC(=O)c3ccc(C(=O)Nc4ccc(C(=O)Nc5ccc[n+](C)c5)cc4Cl)cc3)c(Cl)c2)c1.Cc1ccc(S(=O)(=O)[O-])cc1.Cc1ccc(S(=O)(=O)[O-])cc1
A) 1.3

Q) Specify reported C50 for the molecule shown: Br.C/C(=N\NC(=N)N)c1ccc(NC(=O)c2ccc(Nc3cc[n+](C)c4ccc(N)cc34)cc2N)cc1.[Br-]
A) 0.51

====

- Test system: L1210
- PROTOCOL_DETAILS: Antitumor activity against mouse L1210 cells […] in ip dosed C3H X DBA2 F1 hybrid mouse on day 0 and dosed once daily on days 1 to 5 assessed as increase in life span relative to control
- Type: functional
Field 'label' (enum: YES / NO). Set to YES when D40 is strictly under 10 mg/kg; else NO.

Q) Regarding C[n+]1ccc(Nc2ccc(NC(=O)c3ccc(Nc4cc[n+](C)c5ccc(Cl)cc45)cc3)cc2)cc1.Cc1ccc(S(=O)(=O)[O-])cc1.Cc1ccc(S(=O)(=O)[O-])cc1 , kindly confirm whether its D40 is beneath 10 mg/kg.
A) NO

Q) Regarding C[n+]1ccc(Nc2ccc(NC(=O)c3ccc(C(=O)Nc4ccc(C(=O)Nc5ccc[n+](C)c5)cc4)cc3)cc2)cc1.Cc1ccc(S(=O)(=O)[O-])cc1.Cc1ccc(S(=O)(=O)[O-])cc1 , kindly confirm whether its D40 is beneath 10 mg/kg.
A) YES

Q) Regarding COc1cc(C(=O)Nc2ccc(C(=O)Nc3ccc[n+](C)c3)cc2)ccc1C(=O)Nc1ccc(C(=O)Nc2ccc[n+](C)c2)cc1.Cc1ccc(S(=O)(=O)[O-])cc1.Cc1ccc(S(=O)(=O)[O-])cc1 , kindly confirm whether its D40 is beneath 10 mg/kg.
A) NO

Q) Regarding Br.C/C(=N\NC(=N)N)c1ccc(NC(=O)c2ccc(Nc3cc[n+](C)c4ccccc34)cc2)cc1.[Br-] , kindly confirm whether its D40 is beneath 10 mg/kg.
A) NO

Q) Regarding CC[n+]1cccc2cc(NC(=O)/C=C/c3ccc(C(=O)Nc4ccc5c(ccc[n+]5CC)c4)cc3)ccc21.Cc1ccc(S(=O)(=O)[O-])cc1.Cc1ccc(S(=O)(=O)[O-])cc1 , kindly confirm whether its D40 is beneath 10 mg/kg.
A) YES

Q) Regarding CCCC[n+]1cccc2cc(NC(=O)c3ccc(-c4ccc(-c5ccc(-c6ccc(C(=O)Nc7ccc8c(ccc[n+]8CCCC)c7)cc6)cc5)cc4)cc3)ccc21.Cc1ccc(S(=O)(=O)[O-])cc1.Cc1ccc(S(=O)(=O)[O-])cc1 , kindly confirm whether its D40 is beneath 10 mg/kg.
A) NO

Q) Regarding C[n+]1ccc(Nc2ccc(NC(=O)c3ccc(C(=O)Nc4ccc(Nc5cc[n+](C)c(N)n5)cc4)cc3)cc2)nc1N.Cc1ccc(S(=O)(=O)[O-])cc1.Cc1ccc(S(=O)(=O)[O-])cc1 , kindly confirm whether its D40 is beneath 10 mg/kg.
A) YES
